# Method: log Pow* calculated by Formula 2 from log Pow and the polarity parameter P′(x) of the ethanol/water mixture
Property Measured: log Pow* (P′ 80%)

(P) CCCC(=O)OCC [Ethylbutyrate]
(Q) C=Cc1ccc(O)c(OC)c1
(R) CC(C)=CCCC(C)=CC=O
(S) CC/C=C\CC1C(=O)CCC1CC(=O)OC (centres unmarked) [Methyl jasmonate]
Query: Put the above entries in order of falling log Pow* (P′ 80%). Write the labels out in the order the request specifies.
Result: R, Q, S, P

====

# Method: log Pow: distribution coefficient between 1-octanol and water
# Cond: 1-octanol/water
Property Measured: log Pow

// known answers, use as guide
Chemical String	Property Measured	Observed Value
CCC/C=C/CO	log Pow	1.75
CCC/C=C/C=O	log Pow	1.61

(A) CC(=O)/C=C/C1=C(C)CCCC1(C)C
(B) CC(C)CCO
Query: Given A and given B , which shows the smaller recorded log Pow? Bench note: the answer is the label of the chosen record.
Result: B

====

# Method: log Pow* calculated by Formula 2 from log Pow and the polarity parameter P′(x) of the ethanol/water mixture
Property Measured: log Pow* (P′ 30%)

(a) CCCSSC [Methylpropyldisulfide]
(b) CCCSSCCC [Dipropyldisulfide]
Query: Given a and given b , which shows the smaller recorded log Pow* (P′ 30%)? Bench note: the answer is the label of the chosen record.
Result: a
(a: 2.06, b: 3.34)

====

# Method: log Pow* calculated by Formula 2 from log Pow and the polarity parameter P′(x) of the ethanol/water mixture
Property Measured: log Pow* (P′ 10%)

// known answers, use as guide
Compound	log Pow* (P′ 10%)
C=CC(C)(O)CCC=C(C)C (stereo not shown)	3.01
CCCCCC=O	1.51
CC(C)=CCCC(C)=CC=O	2.89
CC/C=C\CC1C(=O)CCC1CC(=O)OC (stereo not shown) [Methyl jasmonate]	1.70

(P) CCCSSCCC [Dipropyldisulfide]
(Q) CCCC(=O)OCC [Ethylbutyrate]
(R) CCCSSC [Methylpropyldisulfide]
Query: Put these in order: smallest log Pow* (P′ 10%) first, largest last. Write the labels out in the order the request specifies.
Result: Q, R, P

====

# Method: log Pow* calculated by Formula 2 from log Pow and the polarity parameter P′(x) of the ethanol/water mixture
# Cond: solvent ethanol, proportion 50%
Property Measured: log Pow* (P′ 50%)
Returns: the value as a bare number; no unit string appended.

Compound	Observed Value
SCc1ccco1	0.31
CS	−4.00
Oc1ccccc1	−0.56

Consider the additional compound presented here.
The value of log Pow* (P′ 50%) measured for the compound CCOC(=O)C(C)CC (stereo not shown) [Ethylmethylbutyrate-2] turned out to be 1.11

====

# key: entry, value: log Pow* (P′ 30%)
# Method: log Pow* calculated by Formula 2 from log Pow and the polarity parameter P′(x) of the ethanol/water mixture
# Cond: solvent ethanol, proportion 30%
Returns: the value as a bare number; no unit string appended.

// known answers, use as guide
Compound	log Pow* (P′ 30%)
CCC(C)CO (stereo not drawn) [2-mebutanol, 2-methylbutanol]	−0.39
SCc1ccco1 [Furfurylthiol-2]	0.76

Consider the additional compound presented here.
The value of log Pow* (P′ 30%) measured for the compound CCC/C=C/CO [2E-hexenol] turned out to be 0.51

====

# Method: log Pow* calculated by Formula 2 from log Pow and the polarity parameter P′(x) of the ethanol/water mixture
# Cond: solvent ethanol, proportion 4%
Property Measured: log Pow* (P′ 4%)

Molecule	log Pow* (P′ 4%)
OCc1ccco1 [Furfuryl alcohol]	−1.10

(A) CC/C=C\CC1CCCC(=O)O1 (stereo not drawn) [Jasmine lactone]
(B) CC1=CCC(C(C)(C)S)CC1 (stereo not drawn) [p-menthenethiol-1,8]
Query: Given A and given B , which shows the smaller recorded log Pow* (P′ 4%)? Bench note: the answer is the label of the chosen record.
Result: A

====

# Method: log Pow* calculated by Formula 2 from log Pow and the polarity parameter P′(x) of the ethanol/water mixture
# Cond: solvent ethanol, proportion 6%
Property Measured: log Pow* (P′ 6%)

// known answers, use as guide
Compound	Observed Value
CCC(C)CO (stereo not drawn)	0.85
SCc1ccco1	1.60

(A) CCCCCC1CCCC(=O)O1 (stereo not drawn)
(B) CC(=O)/C=C/C1C(C)=CCCC1(C)C (stereo not drawn)
Query: So which one has the bigger log Pow* (P′ 6%) here, A or B ? Bench note: the answer is the label of the chosen record.
Result: B

====

# Method: log Pow* calculated by Formula 2 from log Pow and the polarity parameter P′(x) of the ethanol/water mixture
# Cond: solvent ethanol, proportion 6%
Property Measured: log Pow* (P′ 6%)

// known answers, use as guide
Compound	log Pow* (P′ 6%)
CCCCCCC1CCC(=O)O1 (centres unmarked)	2.14
CS	−0.22
OCc1ccco1	−1.74
CC/C=C\CC1CCCC(=O)O1 (centres unmarked)	2.24
C=C(C)[C@@H]1CCC2=CC(=O)C[C@@H](C)[C@]2(C)C1	3.96
CC(=O)C(C)=O	−1.76
CCCCOC(C)=O [Butylacetate]	1.45
CC1=CCC(C(C)(C)S)CC1 (centres unmarked)	3.90
O=Cc1ccco1	−0.04
CCCCCC(=O)OC [Methylcapronate]	2.05

(I) CCOC(=O)C(C)CC (centres unmarked) [Ethylmethylbutyrate-2]
(II) CC(=O)/C=C/C1=C(C)CCCC1(C)C
Query: So which one has the bigger log Pow* (P′ 6%) here, I or II ? Bench note: the answer is the label of the chosen record.
Result: II
(II: 3.70, I: 2.14)
